tested on: ULK2; conditions: concentration: 1 μM, replicates: in singlicate; n = 1;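 also: KINOMEscan kinase panel screen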
QUANTITY_NAME: %Inh (%)

>>> experimental_value("O=c1cc(N2CCOCC2)nc2n(Cc3ccc(F)c(Cl)c3)ccn12")
0
>>> experimental_value("Cc1cccc(-c2cc(-c3c[nH]nc3-c3ccccn3)ccn2)c1")
0
>>> experimental_value("COc1cc(Nc2nccc(N3CCC(NC(=O)C4COc5ccccc5O4)C3)n2)cc(OC)c1OC (stereo not drawn)")
0
>>> experimental_value("COc1cc2ncn(-c3cc(OCc4ccncc4Br)c(C(N)=O)s3)c2cc1OC")
0
>>> experimental_value("Nc1ncnc2c1ncn2-c1cccc2ccccc12")
16
>>> experimental_value("Cc1c(Cn2c(C)nn3c(=O)cc(N4CCO[C@H](C)C4)nc23)cccc1C(F)(F)F")
0
>>> experimental_value("CC(C)(C)c1ccc(C(=O)Nc2cn3cc(-c4ccccc4)ccc3n2)cc1")
49
>>> experimental_value("CCn1c(-c2ccoc2)nc2cnccc21")
4
>>> experimental_value("CN1C(=O)C(Nc2ccccc2)=C(c2ccccc2)C1=O")
12
